Data provenance is patent US20070299114A1.

- target-or-test-system: dihydrooroate dehydrogenase (Homo sapiens, UniProt Q02127)
- Construct: ultracentrifugation at 4° C. and 120,000×g for 60 minutes afforded a mitochondrial/microsomal fraction; endogenous in cells
- Sequence (Q02127 whole entry): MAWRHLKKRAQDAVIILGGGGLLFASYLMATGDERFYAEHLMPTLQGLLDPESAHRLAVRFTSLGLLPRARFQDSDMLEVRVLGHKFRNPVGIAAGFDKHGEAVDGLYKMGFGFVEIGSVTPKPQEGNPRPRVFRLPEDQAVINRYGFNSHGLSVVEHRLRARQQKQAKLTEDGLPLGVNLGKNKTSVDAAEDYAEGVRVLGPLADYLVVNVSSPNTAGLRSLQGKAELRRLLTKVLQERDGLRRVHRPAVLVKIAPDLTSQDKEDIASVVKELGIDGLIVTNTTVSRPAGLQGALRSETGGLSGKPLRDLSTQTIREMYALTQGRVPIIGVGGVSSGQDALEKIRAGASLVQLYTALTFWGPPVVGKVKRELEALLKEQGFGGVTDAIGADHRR
- test-details: dihydroorotate dehydrogenase inhibition, U-937 mitochondrial/microsomal fraction, DCIP absorbance at 620 nm
- protocol-conditions: DHODH of human U-937 cell mitochondrial/microsomal fraction; 37° C., 120 minutes
measurement-kind: IC50 (nM)
State just the number; it will be interpreted in nM.

Some solved entries appear below for comparison.
CC/C(=C\c1cc(C)c(-c2ccc(NC(C)C)cc2F)cc1C)C(=O)NC1CC1 [Compound 165]; 10.1
Cc1cc(-c2ccc3[nH]ccc3c2)c(C)cc1/C=C(\Cl)C(=O)N[C@H](C)C(=O)O [Compound 299]; 9.57
CC/C(=C\c1cc(C)c(-c2ccc(NC3CCCC3)cc2F)cc1C)C(=O)NC1CCCCC1 [Compound 325]; 10.2
Cc1cc(-c2cc(O)c3[nH]ccc3c2)c(C)cc1/C=C(\Cl)C(=O)NC1CC1 [Compound 268]; 5.78

// below: IC50 requested for another compound
# input compound: COc1c(C)c(-c2ccc(NCC=C(C)C)cc2)c(OC)c(C)c1/C=C(\C)C(=O)NC1CCCC1 [Compound 575] ; wanted: its IC50
9.65
